tested on: C. auris AR Bank #383; test: MIC determination by in vitro antifungal assay; assay type: cell-based, Candida auris; details: Candidozyma auris; C. auris AR Bank #383; read-out: MIC
Quick list: MIC per entry.
Note: a bare number is incomplete; add the unit.

Quick one: give measured MIC for "COc1ccc(NNC(=O)c2ccccn2)cc1"
1.95 µg/mL

Quick one: give measured MIC for "COc1cccc(NNC(=O)c2cnccn2)c1"
1.95 µg/mL

Quick one: give measured MIC for "O=C(NNc1ccc(F)cc1)c1ccccn1"
1.95 µg/mL

Quick one: give measured MIC for "O=C(NNc1ccc(F)cc1F)c1cnccn1"
0.98 µg/mL

Quick one: give measured MIC for "O=C(NNc1ccc(F)cc1F)c1ccccn1"
0.49 µg/mL

Next:
Quick one: give measured MIC for "O=C(NNc1cc(F)cc(F)c1)c1ccccn1"
0.24 µg/mL

Quick one: give measured MIC for "O=C(NNc1cc(Cl)cc(Cl)c1)c1ccccn1"
1.95 µg/mL

Quick one: give measured MIC for "O=C(NNc1cccc(Cl)c1)c1cnccn1"
0.24 µg/mL

Quick one: give measured MIC for "COc1ccc(NNC(=O)c2cnccn2)cc1"
0.98 µg/mL

Quick one: give measured MIC for "O=C(NNc1cc(F)ccc1F)c1ccccn1"
0.49 µg/mL

Reference source: patent US20240425464A1
